Where do these numbers come from? They come from patent US6713443B1.

biological target: 5-HT1B/1D receptors; assay: inhibition of [3H]5-HT binding to 5-HT1nonA sites
MEASURED METRIC: IC50

Which IC50 reading was recorded for the binder LSAL (also called LSAL; the peptide) [Leu-Ser-Ala-Leu] ? 0.01 nM
